Give measured EC50 for each item. Keep answers brief.
- system-tested: AGTR1 (Homo sapiens)
- Construct: host or cells: Pathunter CHO-K1 AGTR1 β-arrestin cell line (CHO-K1)
- Sequence (P30556 whole entry): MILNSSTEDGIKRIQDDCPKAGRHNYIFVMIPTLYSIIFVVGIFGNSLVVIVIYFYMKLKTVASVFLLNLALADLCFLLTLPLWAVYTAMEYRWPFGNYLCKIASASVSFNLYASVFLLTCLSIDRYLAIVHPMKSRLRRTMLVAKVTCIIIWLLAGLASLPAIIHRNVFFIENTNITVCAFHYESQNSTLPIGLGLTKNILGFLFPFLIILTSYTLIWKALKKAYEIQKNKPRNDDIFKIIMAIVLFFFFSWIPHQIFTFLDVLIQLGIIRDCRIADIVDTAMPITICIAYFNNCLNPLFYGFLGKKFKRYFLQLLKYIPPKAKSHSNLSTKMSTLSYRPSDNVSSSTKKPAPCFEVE
- test-protocol: DiscoveRx IP1 accumulation assay (HTRF), agonist mode, Pathunter CHO-K1 AGTR1 β-arrestin cell line
- Assay type: cell-based
- details: read-out: IP-1 EC50
Answer format reminder: number followed by unit.

| molecule | EC50 |
| --- | --- |
| CCc1nc2c(C)cc(C)nc2n1Cc1ccc(-c2cc(Oc3ccc(C)cn3)ccc2-c2nn[nH]n2)cc1 [Example 248] | 81.7 nM |
| CCc1nc2c(C)cc(C)nc2n1Cc1ccc(-c2cc(-c3cccc(C)c3)ccc2C(=O)O)cc1 [Example 182] | 132 nM |
| CCCC1=NC2(CCOC2)C(=O)N1Cc1ccc(-c2cc(-c3cccc(C)c3)ccc2-c2nnn[nH]2)cc1 (single isomer, unassigned) [Example 159] | 78.1 nM |

// moving on: another record for EC50
Per the record, Cc1ccnc(-c2ccc(-c3nn[nH]n3)c(-c3ccc(CN4C(=O)C5(CCCC5)N=C4C4CC4)cc3)c2)c1 [Example 120] has EC50 of 75.3 nM
